Test system: E. coli
Format: cell-based
APPLIED CONDITIONS: no RBC; Table 2
Square brackets hold non-standard residues; d marks the D form. Peptide text beside a SMILES is read from it. d(hArg) = N=C(N)NCCCC[C@@H](N)C(=O)O
MEASURED PROPERTY: MIC, E. coli, No RBC
Respond with the figure and its unit, in that order.

COMPOUND: CC(C)C[C@@H](NC(=O)[C@@H](CCCNC(=N)N)NC(=O)[C@@H](CCCNC(=N)N)NC(=O)[C@@H](Cc1c[nH]c2ccccc12)NC(=O)[C@@H](CCCNC(=N)N)NC(=O)[C@H](N)CCCNC(=N)N)C(=O)N[C@H](C)C(=O)N[C@H](Cc1ccccc1)C(=O)N[C@H](C)C(=O)N[C@H](Cc1ccccc1)C(=O)N[C@H](CCCNC(=N)N)C(=O)N[C@H](CCCNC(=N)N)C(N)=O [D-CONGA-ΔA4, rrwrrlafafrr (All D)] (H-[dR][dR][dW][dR][dR][dL][dA][dF][dA][dF][dR][dR]-NH2)
REPORTED VALUE: 1.6 µM

## Input What does the data say about its MIC, E. coli, No RBC? Entry: CC(C)C[C@H](NC(=O)[C@H](CCCNC(=N)N)NC(=O)[C@H](CCCNC(=N)N)NC(=O)[C@H](C)NC(=O)[C@H](Cc1c[nH]c2ccccc12)NC(=O)[C@H](CCCNC(=N)N)NC(=O)[C@H](N)CCCNC(=N)N)C(=O)N[C@@H](C)C(=O)N[C@@H](Cc1ccccc1)C(=O)N[C@@H](C)C(=O)N[C@@H](Cc1ccccc1)C(=O)N[C@@H](CCCNC(=N)N)C(=O)N[C@H](CCCNC(=N)N)C(N)=O [L-CONGA-D(R1, R13)] (H-[dR]RWARRLAFAFR[dR]-NH2)
## Output 20 µM

## Input Requested read-out: MIC, E. coli, No RBC. Entry: CC(C)C[C@@H]1NC(=O)[C@H](CCCNC(=N)N)NC(=O)[C@H](CCCNC(=N)N)NC(=O)[C@H](C)NC(=O)[C@H](Cc2c[nH]c3ccccc23)NC(=O)[C@H](CCCNC(=N)N)NC(=O)[C@H](CCCNC(=N)N)NC(=O)[C@H](CCCNC(=N)N)NC(=O)[C@H](CCCNC(=N)N)NC(=O)[C@H](Cc2ccccc2)NC(=O)[C@H](C)NC(=O)[C@H](Cc2ccccc2)NC(=O)[C@H](C)NC1=O [CYCLIZED-L-CONGA-OH] (cyclo(RRWARRLAFAFRR))
## Output 5.9 µM

## Input Given the compound CC(C)C[C@@H](NC(=O)[C@@H](CCCCNC(=N)N)NC(=O)[C@@H](CCCCNC(=N)N)NC(=O)[C@@H](C)NC(=O)[C@@H](Cc1c[nH]c2ccccc12)NC(=O)[C@@H](CCCNC(=N)N)NC(=O)[C@H](N)CCCNC(=N)N)C(=O)N[C@H](C)C(=O)N[C@H](Cc1ccccc1)C(=O)N[C@H](C)C(=O)N[C@H](Cc1ccccc1)C(=O)N[C@H](CCCNC(=N)N)C(=O)N[C@H](CCCNC(=N)N)C(N)=O [D-CONGA-HomoR, rrwa (homo r, homo r)lafafrr] (H-[dR][dR][dW][dA][d(hArg)][d(hArg)][dL][dA][dF][dA][dF][dR][dR]-NH2) , what is its reported MIC, E. coli, No RBC?
## Output 1.3 µM

Where do the numbers come from? From patent US20230310540A1.
